Sourced from ChEMBL document CHEMBL1158767

Tested on: HCT-15
Assay method text: Cytotoxicity against human HCT15 cells by SRB assay
Format: functional, cell-based
# IC50 per record follows
Assay readout: IC50 (µg/mL)

# Compound, Measurement units, Experimental result
data = [
    ("C[C@H]1CC[C@@]2(OC1)O[C@H]1C[C@H]3[C@@H]4CC[C@@H]5C[C@@H](O[C@@H]6O[C@H](CO)[C@@H](O)[C@H](O)[C@H]6O[C@@H]6O[C@@H](CO)[C@H](O)[C@H](O)[C@H]6O)CC[C@]5(C)[C@H]4CC[C@]3(C)[C@H]1[C@@H]2C (relative stereo)", "µg/mL", 2.47),
    ("COc1cccc2c1C(=O)c1c(O)c3c(c(O)c1C2=O)C[C@@](O)(C(=O)CO)C[C@@H]3O[C@H]1C[C@H](N)[C@H](O)[C@H](C)O1", "µg/mL", 0.08),
    ("C[C@H]1CC[C@@]2(OC1)O[C@H]1C[C@H]3[C@@H]4CC[C@@H]5C[C@@H](O[C@@H]6O[C@H](CO)[C@@H](O[C@@H]7O[C@@H](C)[C@H](O)[C@@H](O)[C@H]7O)[C@H](O)[C@H]6O[C@@H]6OC[C@@H](O)[C@H](O)[C@H]6O)CC[C@]5(C)[C@H]4CC[C@]3(C)[C@@]1(O)[C@@H]2C (relative stereo)", "µg/mL", 2.57),
    ("C[C@H]1CC[C@@]2(OC1)O[C@H]1C[C@H]3[C@@H]4CC[C@@H]5C[C@@H](O[C@@H]6O[C@H](CO)[C@@H](O)[C@H](O)[C@H]6O[C@@H]6O[C@@H](CO)[C@H](O)[C@H](O)[C@H]6O)CC[C@]5(C)[C@H]4CC[C@]3(C)[C@@]1(O)[C@@H]2C (relative stereo)", "µg/mL", 2.59),
]
